- Tested on: Escherichia coli TOP10
- protocolDetails: shrunken log2 fold change of peptide-encoding DNA abundance (4.5 h post-induction vs induction); higher = less antimicrobial activity (less host growth inhibition)
- settings: time post-induction: 4.5 h; library: site-saturation at positions 5, 18, 19, 20
Entry class follows shrunken log2 fold change: bottom range: < -0.06; center range: ≥ -0.06 and < 0.1; top range: ≥ 0.1

RRIRCRPPRLPRPRPRPQGYPRP    center range
RRIRSRPPRLPRPRPRPCVQPRP    bottom range
RRIRGRPPRLPRPRPRPEQHPRP    top range

Prompt line: Place this sequence in its band: RRIRPRPPRLPRPRPRPDWNPRP
Response line: bottom range

Prompt line: Where would RRIRIRPPRLPRPRPRPPNAPRP land among the classes by reported shrunken log2 fold change?
Response line: center range

Prompt line: Class (by measured shrunken log2 fold change) for RRIRTRPPRLPRPRPRPLIHPRP
Response line: bottom range

---

- Tested on: Escherichia coli TOP10
- protocolDetails: shrunken log2 fold change of peptide-encoding DNA abundance (4.5 h post-induction vs induction); higher = less antimicrobial activity (less host growth inhibition)
- settings: time post-induction: 4.5 h; library: site-saturation at positions 5, 18, 19, 20
Criterion: shrunken log2 fold change meeting or surpassing -0.04. Met: t. Not met: f.

Prompt line: Could you please find out whether RRIRERPPRLPRPRPRPAWQPRP has shrunken log2 fold change that meets -0.04 or exceeds it?
Response line: f

Prompt line: API: above_or_equal(metric=shrunken log2 fold change, cutoff=-0.04) for item RRIRGRPPRLPRPRPRPDILPRP
Response line: t

Prompt line: Given RRIRPRPPRLPRPRPRPMKPPRP , state whether its shrunken log2 fold change is at least -0.04.
Response line: t

---

- Tested on: Escherichia coli TOP10
- protocolDetails: shrunken log2 fold change of peptide-encoding DNA abundance (4.5 h post-induction vs induction); higher = less antimicrobial activity (less host growth inhibition)
- settings: time post-induction: 4.5 h; library: site-saturation at positions 5, 18, 19, 20
I'd be grateful if you could share measured shrunken log2 fold change for these entries.
Answers are plain numbers.

Recorded results for 2 sequences are shown here.
RRIRYRPPRLPRPRPRPGPEPRP    0.0444
RRIRNRPPRLPRPRPRPCGWPRP    0.0822

Fill in shrunken log2 fold change for each of the 3 sequences listed.
1. RRIRDRPPRLPRPRPRPELKPRP
2. RRIRMRPPRLPRPRPRPKEPPRP
3. RRIRFRPPRLPRPRPRPYWTPRP

Response line:
1. -0.00616
2. -0.074
3. -0.651

List shrunken log2 fold change for every entry below, keeping the order given.
1. RRIRKRPPRLPRPRPRPDDTPRP
2. RRIRCRPPRLPRPRPRPTLKPRP

Response line:
1: 2.31; 2: 0.017

Okay, here is my list. What is shrunken log2 fold change for each of these?
1. RRIRCRPPRLPRPRPRPIEHPRP
2. RRIRFRPPRLPRPRPRPRGTPRP
3. RRIRRRPPRLPRPRPRPSTLPRP

Response line:
1: -0.00454; 2: 0.294; 3: -0.174

List shrunken log2 fold change for every entry below, keeping the order given.
1. RRIRARPPRLPRPRPRPPMGPRP
2. RRIRKRPPRLPRPRPRPCLHPRP
3. RRIRLRPPRLPRPRPRPSDGPRP
4. RRIRMRPPRLPRPRPRPYQCPRP
5. RRIRNRPPRLPRPRPRPCHIPRP

Response line:
0.358
-0.0515
-0.162
-0.118
-0.366

Could I get shrunken log2 fold change for every one of these entries?
1. RRIRTRPPRLPRPRPRPLLTPRP
2. RRIRTRPPRLPRPRPRPAGQPRP

Response line:
1. -0.0897
2. -0.109

For each of the items listed, what is its shrunken log2 fold change?
1. RRIRGRPPRLPRPRPRPWNKPRP
2. RRIRPRPPRLPRPRPRPLPCPRP
3. RRIRHRPPRLPRPRPRPHMRPRP
4. RRIRMRPPRLPRPRPRPFCDPRP
5. RRIRLRPPRLPRPRPRPTQDPRP
6. RRIRARPPRLPRPRPRPYWYPRP
7. RRIRWRPPRLPRPRPRPDFQPRP

Response line:
1: -0.306; 2: -0.407; 3: -0.00342; 4: 0.179; 5: 0.488; 6: -0.763; 7: 0.0985

Batch request: shrunken log2 fold change for each of the following sequences.
1. RRIRYRPPRLPRPRPRPNRGPRP
2. RRIRMRPPRLPRPRPRPWYNPRP
3. RRIRGRPPRLPRPRPRPFCIPRP

Response line:
-0.124
-0.044
0.494

State the recorded shrunken log2 fold change for every item in the following list.
1. RRIRHRPPRLPRPRPRPGWDPRP
2. RRIRYRPPRLPRPRPRPYQEPRP
3. RRIRQRPPRLPRPRPRPSLSPRP
4. RRIRYRPPRLPRPRPRPKREPRP

Response line:
0.18
-0.00233
-0.227
0.0201

---

- Test system: Escherichia coli TOP10
- protocolDetails: shrunken log2 fold change of peptide-encoding DNA abundance (4.5 h post-induction vs induction); higher = less antimicrobial activity (less host growth inhibition)
- settings: time post-induction: 4.5 h; library: site-saturation at positions 5, 18, 19, 20
Values of shrunken log2 fold change greater than or equal to -0.2 map to 1; values below map to 0.

RRIRQRPPRLPRPRPRPTIIPRP    0

Prompt line: Form field: shrunken log2 fold change at least -0.2? Entry: RRIRDRPPRLPRPRPRPRLQPRP
Response line: 1

Prompt line: Can RRIRLRPPRLPRPRPRPSRQPRP be said to have shrunken log2 fold change at or above -0.2?
Response line: 1

Prompt line: Does RRIRFRPPRLPRPRPRPQHYPRP have a reported shrunken log2 fold change of at least -0.2?
Response line: 0

Prompt line: Is shrunken log2 fold change at least -0.2? Consider RRIRSRPPRLPRPRPRPLRTPRP
Response line: 1

Prompt line: Is the recorded value of shrunken log2 fold change equal to or greater than -0.2 for this sequence? RRIRCRPPRLPRPRPRPRSPPRP
Response line: 1

Prompt line: Dear colleague, could you confirm whether RRIRGRPPRLPRPRPRPAEAPRP has shrunken log2 fold change at or above -0.2?
Response line: 1

Prompt line: Could you verify whether the entry RRIRGRPPRLPRPRPRPRTWPRP shows shrunken log2 fold change of no less than -0.2?
Response line: 1

---

- Tested on: Escherichia coli TOP10
- protocolDetails: shrunken log2 fold change of peptide-encoding DNA abundance (4.5 h post-induction vs induction); higher = less antimicrobial activity (less host growth inhibition)
- settings: time post-induction: 4.5 h; library: site-saturation at positions 5, 18, 19, 20
assayReadout: shrunken log2 fold change
Answers are plain numbers.

A selection of reference data follows.
RRIRDRPPRLPRPRPRPDNVPRP    -0.273
RRIRSRPPRLPRPRPRPYDDPRP    0.0208
RRIRLRPPRLPRPRPRPTAAPRP    0.897

As a next step, examine the sequence that follows.
Sure, the documented shrunken log2 fold change for RRIRFRPPRLPRPRPRPGDMPRP is -0.311

---

- Tested on: Escherichia coli TOP10
- protocolDetails: shrunken log2 fold change of peptide-encoding DNA abundance (4.5 h post-induction vs induction); higher = less antimicrobial activity (less host growth inhibition)
- settings: time post-induction: 4.5 h; library: site-saturation at positions 5, 18, 19, 20
assayReadout: shrunken log2 fold change
Numbers only.

RRIRTRPPRLPRPRPRPCRNPRP    -0.533

Quick batch: shrunken log2 fold change for everything below.
1. RRIRHRPPRLPRPRPRPHITPRP
2. RRIRFRPPRLPRPRPRPQVDPRP
3. RRIRDRPPRLPRPRPRPFLRPRP
4. RRIRARPPRLPRPRPRPMLSPRP
5. RRIRARPPRLPRPRPRPNQKPRP
6. RRIRDRPPRLPRPRPRPWGCPRP
7. RRIRCRPPRLPRPRPRPNFKPRP
8. RRIRQRPPRLPRPRPRPMQLPRP

Response line:
1. -0.857
2. -0.412
3. 0.00895
4. 0.133
5. 0.0427
6. 0.166
7. -0.21
8. -0.15

---

- Tested on: Escherichia coli TOP10;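 further: peptides expressed intracellularly from a pBAD plasmid library in pooled LB shake-flask culture, induced with 0.3% L-arabinose, DNA abundance read by NGS, three biological replicates, DESeq2 with apeglm shrinkage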
- protocolDetails: shrunken log2 fold change of peptide-encoding DNA abundance (4.5 h post-induction vs induction); higher = less antimicrobial activity (less host growth inhibition)
- settings: time post-induction: 4.5 h; library: site-saturation at positions 5, 18, 19, 20
I'd be grateful if you could share measured shrunken log2 fold change for these entries.
One number for each entry.

A selection of reference data follows.
RRIRGRPPRLPRPRPRPARRPRP    0.739
RRIRKRPPRLPRPRPRPKHDPRP    0.133
RRIRSRPPRLPRPRPRPTHMPRP    0.188
RRIRLRPPRLPRPRPRPFRAPRP    0.113
RRIRMRPPRLPRPRPRPQGQPRP    0.253

Consider the following items and state reported shrunken log2 fold change for each.
1. RRIRMRPPRLPRPRPRPQQKPRP
2. RRIRYRPPRLPRPRPRPFEQPRP
3. RRIRHRPPRLPRPRPRPKDAPRP
4. RRIRTRPPRLPRPRPRPKYSPRP
5. RRIRVRPPRLPRPRPRPQWAPRP
6. RRIRVRPPRLPRPRPRPKRSPRP
7. RRIRLRPPRLPRPRPRPANLPRP
8. RRIRPRPPRLPRPRPRPPGWPRP

Response line:
1: 0.0182; 2: -0.382; 3: -0.112; 4: -0.413; 5: -0.0201; 6: 0.112; 7: -0.00914; 8: 0.484
